Quick list: OD450 at 0.0001 nM antibody per entry.
molecular target: T1, murine GPC3-his protein (Sino Biological, Cat. No. 50989-M08B) (murine, UniProt Q8CFZ4 25-558); assay: ELISA, coated murine GPC3-His;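 further: antigen coated on plates at 1 µg/mL, test antibody bound for 2 h at 37 °C, detected with HRP-conjugated secondary antibody and TMB substrate after acid stop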
T1 construct: Bought protein; also called murine GPC3 protein
T1 sequence (Q8CFZ4 25-558 limits assumed): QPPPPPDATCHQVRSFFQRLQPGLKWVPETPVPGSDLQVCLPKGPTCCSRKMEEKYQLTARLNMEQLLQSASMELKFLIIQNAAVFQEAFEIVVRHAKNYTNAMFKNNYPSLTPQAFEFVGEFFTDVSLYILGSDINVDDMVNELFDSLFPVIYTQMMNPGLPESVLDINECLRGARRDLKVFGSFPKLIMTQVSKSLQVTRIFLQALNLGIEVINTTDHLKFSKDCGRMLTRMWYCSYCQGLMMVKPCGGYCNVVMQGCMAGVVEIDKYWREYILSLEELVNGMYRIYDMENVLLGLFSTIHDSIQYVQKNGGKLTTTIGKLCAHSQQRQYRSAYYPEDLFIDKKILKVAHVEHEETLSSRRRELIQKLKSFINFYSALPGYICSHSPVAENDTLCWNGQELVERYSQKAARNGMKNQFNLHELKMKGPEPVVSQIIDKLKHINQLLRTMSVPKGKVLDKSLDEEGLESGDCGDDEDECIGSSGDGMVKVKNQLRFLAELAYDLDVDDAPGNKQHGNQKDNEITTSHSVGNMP

binder	OD450 at 0.0001 nM antibody
F1.110.24 human-murine chimeric antibody (antibody, human IgG1, kappa, V domains shown) VH: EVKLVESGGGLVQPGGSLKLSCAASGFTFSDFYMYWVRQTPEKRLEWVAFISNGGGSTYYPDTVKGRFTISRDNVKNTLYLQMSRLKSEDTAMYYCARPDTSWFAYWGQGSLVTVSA VL: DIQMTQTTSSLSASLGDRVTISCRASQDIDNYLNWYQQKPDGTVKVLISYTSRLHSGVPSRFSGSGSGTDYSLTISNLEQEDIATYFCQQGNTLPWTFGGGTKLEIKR	0.05 OD450 nm
F1.21.8 human-murine chimeric antibody (antibody, human IgG1, kappa, V domains shown) VH: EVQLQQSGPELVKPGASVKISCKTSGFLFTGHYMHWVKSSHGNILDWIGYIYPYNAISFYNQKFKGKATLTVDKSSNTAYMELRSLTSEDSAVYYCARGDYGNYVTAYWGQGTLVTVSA VL: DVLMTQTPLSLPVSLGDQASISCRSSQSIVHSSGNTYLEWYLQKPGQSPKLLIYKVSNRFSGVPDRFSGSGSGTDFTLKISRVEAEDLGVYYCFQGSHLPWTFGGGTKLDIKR	0.05 OD450 nm
F2.154.1 human-murine chimeric antibody (antibody, human IgG1, kappa, V domains shown) VH: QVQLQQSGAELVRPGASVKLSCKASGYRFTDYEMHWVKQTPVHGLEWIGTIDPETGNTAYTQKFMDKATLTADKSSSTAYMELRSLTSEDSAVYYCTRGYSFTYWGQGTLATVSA VL: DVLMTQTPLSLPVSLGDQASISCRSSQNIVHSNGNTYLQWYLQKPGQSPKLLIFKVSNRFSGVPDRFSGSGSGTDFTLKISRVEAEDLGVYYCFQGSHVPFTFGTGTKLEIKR	0.05 OD450 nm
